Cited source: patent US20230312587A1

IC50 overview
# System: Hek293 WFS1 over-expressor
# Measurement Protocol: In vitro cell viability (CellTiter-Glo), Hek293 WFS1 over-expressor
# Type: cell-based
# Test Parameters: Homo sapiens, HEK293, Hek293 WFS1 over-expressing cells; read-out: Hek293 WFS1 viability

Below: 5 molecules and their reported IC50.
{"columns": ["Molecule", "Measured On", "Readout Value"],
 "data": [
  ["Cc1ccc(Cn2cc(CNc3nc(C)c4c(n3)N(C)[C@@H](C)C(=O)N4)cn2)cn1", "Hek293 WFS1 over-expressor", "60 to 600 nM"],
  ["COc1c(F)cc(Cn2cc(CNc3nc(C)c4c(n3)N(C)[C@@H](C)C(=O)N4)cn2)cc1F", "Hek293 WFS1 over-expressor", "< 60 nM"],
  ["Cc1nc(N[C@H]2C[C@@H](Sc3ccc(F)cc3)C2)nc2c1N(C)C(=O)[C@H](C)N2C", "Hek293 WFS1 over-expressor", "60 to 600 nM"],
  ["Cc1nc(NCc2cnn(Cc3cccc(C(C)C)c3)c2)nc2c1NC(=O)[C@H](C)N2C", "Hek293 WFS1 over-expressor", "< 60 nM"],
  ["Cc1nc(NCc2cn(Cc3ccc(C(F)(F)F)nc3)cn2)nc2c1NC(=O)[C@H](C)N2C", "Hek293 WFS1 over-expressor", "≥ 3000 nM"]
]}

Could you share which IC50 value was measured for Cc1nc(NCc2cnn(Cc3ccc(Cl)nc3)c2)nc2c1NC(=O)[C@H](C(C)C)N2C ?
< 60 nM

Could you share which IC50 value was measured for Cc1nc(NCc2cnn(CC3CCC3)c2)nc2c1N(C)C(=O)[C@H](C)N2C ?
60 to 600 nM

Could you share which IC50 value was measured for Cc1nc(N[C@H]2C[C@H](Oc3ccc(C(F)(F)F)nc3)C2)nc2c1NC(=O)[C@H](C)N2C ?
< 60 nM

Could you share which IC50 value was measured for Cc1nc(NCc2cnn(Cc3ccnc(C(F)(F)F)c3)c2)nc2c1NC(=O)[C@H](C)N2C ?
< 60 nM

Could you share which IC50 value was measured for Cc1nc(NCc2cnn(Cc3cncc(F)c3)c2)nc2c1NC(=O)[C@H](C(C)C)N2C ?
< 60 nM

Could you share which IC50 value was measured for Cc1nc(NCc2cnn(Cc3cc(F)c(F)c(F)c3)c2)nc2c1NC(=O)[C@H](C)N2C ?
< 60 nM
